Recorded values, source ChEMBL document CHEMBL4229469.

MEASURED_TARGET: DNA repair protein REV1 (Homo sapiens)
Sequence (Q9UBZ9 whole entry, the tested form may be a part): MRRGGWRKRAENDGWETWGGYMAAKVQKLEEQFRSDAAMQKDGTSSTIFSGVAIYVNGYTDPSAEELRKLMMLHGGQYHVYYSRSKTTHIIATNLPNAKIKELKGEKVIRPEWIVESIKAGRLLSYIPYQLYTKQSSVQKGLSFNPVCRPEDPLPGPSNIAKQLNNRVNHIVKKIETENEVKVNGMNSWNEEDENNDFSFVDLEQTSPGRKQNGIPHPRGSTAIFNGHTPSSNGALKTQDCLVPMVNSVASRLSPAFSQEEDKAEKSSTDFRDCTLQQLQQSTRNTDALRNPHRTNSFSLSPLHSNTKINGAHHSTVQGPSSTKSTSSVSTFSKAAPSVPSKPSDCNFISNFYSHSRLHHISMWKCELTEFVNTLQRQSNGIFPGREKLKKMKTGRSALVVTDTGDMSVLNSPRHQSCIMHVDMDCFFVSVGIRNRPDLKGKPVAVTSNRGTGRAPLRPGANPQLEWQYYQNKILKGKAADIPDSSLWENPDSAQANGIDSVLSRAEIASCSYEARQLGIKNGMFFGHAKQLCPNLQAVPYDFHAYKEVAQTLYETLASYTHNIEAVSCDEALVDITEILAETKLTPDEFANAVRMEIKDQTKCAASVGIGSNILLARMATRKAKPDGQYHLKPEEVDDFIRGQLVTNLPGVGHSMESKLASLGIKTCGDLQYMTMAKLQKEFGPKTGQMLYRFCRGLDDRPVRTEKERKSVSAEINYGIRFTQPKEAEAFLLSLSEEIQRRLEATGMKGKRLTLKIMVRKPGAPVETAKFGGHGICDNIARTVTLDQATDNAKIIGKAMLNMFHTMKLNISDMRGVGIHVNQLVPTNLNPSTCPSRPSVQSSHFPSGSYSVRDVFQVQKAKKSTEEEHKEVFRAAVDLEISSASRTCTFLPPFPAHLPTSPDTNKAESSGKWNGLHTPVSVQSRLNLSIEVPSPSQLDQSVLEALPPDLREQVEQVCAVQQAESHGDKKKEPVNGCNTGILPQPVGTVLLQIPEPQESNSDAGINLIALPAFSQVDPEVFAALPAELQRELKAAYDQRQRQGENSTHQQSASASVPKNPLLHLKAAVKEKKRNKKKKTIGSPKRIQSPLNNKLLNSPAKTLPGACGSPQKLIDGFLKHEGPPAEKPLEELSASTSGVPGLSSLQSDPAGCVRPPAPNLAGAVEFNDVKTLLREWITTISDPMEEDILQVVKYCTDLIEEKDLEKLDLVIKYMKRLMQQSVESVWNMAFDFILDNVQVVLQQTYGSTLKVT
TEST_NAME: Displacement of FAM-labelled polkappa-RIR peptide from recombinant human C-terminal Rev1 (1158 to 1251 residues) expressed in Escherichia coli BL21(DE3) after 1 hr by fluorescence polarization assay
pKi: −log10 of the molar value.

{"COMPOUND": "CCc1ccc(NC(=O)CN2CCN(c3ccc(OC)cc3)CC2)cc1", "MEASURED_TARGET": "DNA repair protein REV1 (Homo sapiens)", "pKi": 5.44}
{"COMPOUND": "Cc1ccc(C(=O)N2CCN(c3ccccc3)CC2)cc1S(=O)(=O)N1CCOCC1", "MEASURED_TARGET": "DNA repair protein REV1 (Homo sapiens)", "pKi": 5.52}
{"COMPOUND": "CCc1cc(C(=O)OC)c(NC(=O)C2CCN(C(C)=O)CC2)s1", "MEASURED_TARGET": "DNA repair protein REV1 (Homo sapiens)", "pKi": 4.54}
{"COMPOUND": "CC(=O)C(C)n1c(CN2CCN(c3cccc(Cl)c3)CC2)nc2c1c(=O)n(C)c(=O)n2C (stereo not given)", "MEASURED_TARGET": "DNA repair protein REV1 (Homo sapiens)", "pKi": 5.70}
{"COMPOUND": "CCCC1CCc2c(sc(NC(=O)C3CCN(C(C)=O)CC3)c2C(N)=O)C1 (stereo not given)", "MEASURED_TARGET": "DNA repair protein REV1 (Homo sapiens)", "pKi": 4.92}
